# testTarget: Serine protease 1 (Bos taurus)
# Sequence (P00760 whole entry): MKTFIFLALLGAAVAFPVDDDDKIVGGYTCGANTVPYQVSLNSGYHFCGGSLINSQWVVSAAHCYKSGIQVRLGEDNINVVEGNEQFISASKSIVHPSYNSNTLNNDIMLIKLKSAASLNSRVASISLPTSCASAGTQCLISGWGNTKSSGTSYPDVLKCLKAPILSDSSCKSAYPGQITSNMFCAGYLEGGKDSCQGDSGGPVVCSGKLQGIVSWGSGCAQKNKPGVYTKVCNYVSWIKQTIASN
So basically: is Ki under 70 nM? Then rule met. Not under? Then rule not met.

{"compound": "CN[C@H](Cc1ccccc1)C(=O)N1CCC[C@H]1C(=O)N[C@@H](CCCNC(=N)N)C(=O)c1nc2c(s1)CCCC2", "assignedCategory": "rule met"}
{"compound": "CN[C@H](Cc1ccccc1)C(=O)N1CCC[C@H]1C(=O)N[C@@H](CCCNC(=N)N)C(=O)c1ccccn1", "assignedCategory": "rule not met"}
{"compound": "CN[C@H](Cc1ccccc1)C(=O)N1CCC[C@H]1C(=O)N[C@@H](CCCNC(=N)N)C(=O)c1nc2ccccc2n1C", "assignedCategory": "rule not met"}
{"compound": "CN[C@H](Cc1ccccc1)C(=O)N1CCC[C@H]1C(=O)N[C@@H](CCCNC(=N)N)C(=O)c1nc2ccccc2[nH]1", "assignedCategory": "rule met"}
{"compound": "CN[C@H](Cc1ccccc1)C(=O)N1CCC[C@H]1C(=O)N[C@@H](CCCN=C(N)N)C(=O)C1=NC(=O)C2C=CC=CC2=N1 (stereo not given in full)", "assignedCategory": "rule met"}
